Just for reference, patent US7186831B2 is where these values come from.

assay: log P by HPLC; format: physicochemical; settings: HPLC, gradient method, acetonitrile/0.1% aqueous phosphoric acid; EEC directive 79/831 Annex V. A8
value.kind: logP

compound: Fc1ccc(-c2c(Cl)nc3nc(C4CC4)nn3c2NC2CCCC2)c(F)c1
meas.value: 3.76
--
compound: Fc1ccc(Nc2c(-c3ccc(F)cc3F)c(Cl)nc3nc(C(F)(F)F)nn23)cc1
meas.value: 3.69
--
compound: CC1CCN(c2c(-c3ccc(F)cc3F)c(Cl)nc3nc(C4CC4)nn23)CC1
meas.value: 4.41
--
compound: CC(C)CN(N)c1c(-c2c(F)cccc2F)c(Cl)nc2nc(C3CC3)nn12
meas.value: 3.47
--
compound: COC(=O)CN(C)c1c(-c2c(F)cccc2F)c(Cl)nc2nc(C)nn12
meas.value: 2.32
--
compound: Fc1ccc(-c2c(Cl)nc3nc(C4CC4)nn3c2NCC2CC2)c(F)c1
meas.value: 3.26
--
compound: CCN(CCOC)c1c(-c2c(F)cc(F)cc2F)c(Cl)nc2nc(C(F)(F)F)nn12
meas.value: 4.04
--
compound: C=C(C)CNc1c(-c2ccc(F)cc2Cl)c(Cl)nc2nc(C3CC3)nn12
meas.value: 3.59
--
compound: COC(=O)C(COC(C)(C)C)Nc1c(-c2c(F)cc(F)cc2F)c(Cl)nc2nc(C)nn12 (centres unmarked)
meas.value: 3.47
--
compound: Cc1nc2nc(Cl)c(-c3ccc(Cl)cc3Cl)c(NCC(C)C)n2n1
meas.value: 3.68
--
compound: CCNc1c(-c2ccc(F)cc2F)c(Cl)nc2nc(C)nn12
meas.value: 3.08
--
compound: C=C(C)CN(CC)c1c(-c2c(F)cc(F)cc2F)c(Cl)nc2nc(C(F)(F)F)nn12 [compound 95]
meas.value: 4.69
--
compound: Cc1nc2nc(Cl)c(-c3c(F)cccc3F)c(N3CCCCC3)n2n1
meas.value: 3.17
--
compound: Cc1nc2nc(Cl)c(-c3ccccc3Cl)c(N3CCCC(C)C3)n2n1 (centres unmarked)
meas.value: 3.92
--
compound: CCCNc1c(-c2c(F)cc(F)cc2F)c(Cl)nc2nc(CC)nn12
meas.value: 3.14
--
compound: Cc1nc2nc(Cl)c(-c3ccccc3Cl)c(N3CCSCC3)n2n1
meas.value: 3.09
--
compound: Cc1nc2nc(Cl)c(-c3c(F)cccc3F)c(NC(C)C(C)C)n2n1 (centres unmarked)
meas.value: 3.18
--
compound: Fc1ccc(-c2c(Cl)nc3nc(C4CC4)nn3c2NC2CCCCC2)c(F)c1
meas.value: 4.02
--
compound: CCc1nc2nc(Cl)c(-c3c(F)cc(F)cc3F)c(N(CC)CCOC)n2n1
meas.value: 3.37
--
compound: CC(C)CC(C)Nc1c(-c2ccc(F)cc2F)c(Cl)nc2nc(C3CC3)nn12 (centres unmarked)
meas.value: 4.24

* * *

assay: log P by HPLC; format: physicochemical; settings: HPLC, gradient method, acetonitrile/0.1% aqueous phosphoric acid; EEC directive 79/831 Annex V. A8
value.kind: logP

compound: CCCCNc1c(-c2c(F)cccc2F)c(Cl)nc2nc(C)nn12
meas.value: 2.89
--
compound: CCc1nc2nc(Cl)c(-c3c(F)cc(F)cc3F)c(NC(C)C)n2n1
meas.value: 3.15
--
compound: Cc1nc2nc(Cl)c(-c3c(F)cc(F)cc3F)c(N(C)CC(C)C)n2n1
meas.value: 3.63
--
compound: Cc1nc2nc(Cl)c(-c3ccc(F)cc3F)c(NC(C)C3CCCCC3)n2n1 (centres unmarked)
meas.value: 4.24
--
compound: CC1CN(c2c(-c3ccc(F)cc3F)c(Cl)nc3nc(C4CC4)nn23)CC(C)O1 (centres unmarked)
meas.value: 3.63

* * *

assay: log P by HPLC; assay type: physicochemical; conditions: HPLC, gradient method, acetonitrile/0.1% aqueous phosphoric acid; EEC directive 79/831 Annex V. A8

compound: Cc1nc2nc(Cl)c(-c3c(F)cc(F)cc3F)c(NC(C)C(F)(F)F)n2n1 (stereo not drawn) [compound 69]
logP: 3.04
--
compound: C=CCN(C)c1c(-c2ccc(F)cc2F)c(Cl)nc2nc(C3CC3)nn12 [compound 664]
logP: 3.61
--
compound: CCNc1c(-c2c(F)cc(F)cc2F)c(Cl)nc2nc(C(F)(F)F)nn12 [compound 102]
logP: 3.5

* * *

experiment: log P by HPLC; format: physicochemical; details: HPLC, gradient method, acetonitrile/0.1% aqueous phosphoric acid; EEC directive 79/831 Annex V. A8
Recorded logP, one value per entry.

compound: OC1CCCN(c2c(-c3ccc(F)cc3F)c(Cl)nc3nc(C(F)(F)F)nn23)C1 (stereo not shown)
logP: 3.07

compound: COCCN(C)c1c(-c2ccccc2Cl)c(Cl)nc2nc(C)nn12
logP: 2.64

compound: C=C(C)CN(CC)c1c(-c2ccc(F)cc2F)c(Cl)nc2nc(C)nn12
logP: 3.73

compound: CCN(CC)c1c(-c2ccc(F)cc2Cl)c(Cl)nc2nc(C3CC3)nn12
logP: 4.13

compound: CCCN(CC1CC1)c1c(-c2c(F)cc(F)cc2F)c(Cl)nc2nc(C)nn12
logP: 4.08

compound: CC(Nc1c(-c2c(F)cc(F)cc2F)c(Br)nc2nc(C(F)(F)F)nn12)C(F)(F)F (stereo not shown)
logP: 3.99

compound: CCN(CCOC)c1c(-c2c(F)cccc2Cl)c(Cl)nc2nc(C3CC3)nn12
logP: 3.66

compound: Cc1nc2nc(Cl)c(-c3c(F)cccc3F)c(NC3CCC(C(F)(F)F)CC3)n2n1 (stereo not shown)
logP: 3.39

compound: Fc1ccc(-c2c(Cl)nc3nc(C4CC4)nn3c2N2CCCC2C(F)(F)F)c(Cl)c1 (stereo not shown)
logP: 4.23

compound: CC1CCCCN1c1c(-c2c(F)cccc2F)c(Cl)nc2nc(C3CC3)nn12 (stereo not shown)
logP: 3.17

compound: CC(C)(C)CNc1c(-c2c(F)cccc2F)c(Cl)nc2nc(C3CC3)nn12
logP: 3.9

compound: CCc1nc2nc(Cl)c(-c3c(F)cc(F)cc3F)c(N(N)CC(C)C)n2n1
logP: 3.47

compound: CCOC(=O)CN(CC)c1c(-c2ccc(F)cc2F)c(Cl)nc2nc(C3CC3)nn12
logP: 3.54
